- Tested on: Staphylococcus aureus H 228
- assayRemarks: in vitro antibacterial activity, microtitration dilution method
- Type: cell-based
- appliedConditions: H228; in vitro; Staphylococcus aureus H 228; read-out: minimal inhibitory concentration (MIC)
measurementName: log10 of MIC (log10 of the value in µg/mL)
Values below are the log10 of the recorded MIC, with µg/mL as the unit.

Illustrative cases are given below, each with its answer.
compound	recordedMeasurement
CCN[C@H]1C[C@H]2CC[C@@H](C1)N2c1nc2c(cc1F)c(=O)c(C(=O)O)cn2C1CC1 [Example 5b]	-0.10
O=C(O)c1cn(C2CC2)c2cc(N3CC4CCCC3CN4)c(F)cc2c1=O (stereo not drawn) [Example 7]	-1.00
CCN[C@H]1C[C@H]2CC[C@@H](C1)N2c1cc2c(cc1F)c(=O)c(C(=O)O)cn2C1CC1 [Example 5f]	0.49
O=C(O)c1cn(C2CC2)c2c(F)c(N3CC4CCCC3CN4)c(F)cc2c1=O (stereo not drawn) [Example 2]	-1.30
CCN[C@H]1C[C@H]2CC[C@@H](C1)N2c1c(F)cc2c(=O)c(C(=O)O)cn(C3CC3)c2c1F [Example 5c]	-0.10

Please find the next compound below.
Exercise: Fill in reported log10 of MIC for this entry: CCN[C@@H]1C[C@H]2CC[C@@H](C1)N2c1cc2c(cc1F)c(=O)c(C(=O)O)cn2C1CC1 [Example 5e]
Key: -0.40
